Data provenance: BigSolDB 2.1

# details: in 2-ethylhexanol, 288.15 K
recorded-metric: solubility (mole fraction)
When you answer, write just the number.

I am curious: what solubility (mole fraction) value has been reported for C[C@H]1O[C@@H](n2cc(F)c(=O)[nH]c2=O)[C@H](O)[C@@H]1O ?
3.13e-05

* * *

# details: in 2-ethylhexanol, 313.15 K
recorded-metric: solubility (mole fraction)
Kindly provide the number alone.

Request the reported solubility (mole fraction) associated with C[C@H]1O[C@@H](n2cc(F)c(=O)[nH]c2=O)[C@H](O)[C@@H]1O
0.000182

* * *

# details: in 2-ethylhexanol, 298.15 K
recorded-metric: solubility (mole fraction)
Reply with the value as a number alone.

Given the compound C[C@H]1O[C@@H](n2cc(F)c(=O)[nH]c2=O)[C@H](O)[C@@H]1O , what is its reported solubility (mole fraction)?
6.85e-05
